Peptide-ratio 18-23/2-7 values for the binders below.
target: T1, BSA-conjugated Aβ heptapeptide VFFAEDC (C-terminal Cys coupled to NSMP-activated BSA); test: ELISA;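 further: ELISA binding of human antibody (10 or 2 µg/ml) to plate-coated BSA–peptide conjugates, detected with HRP anti-human Ig and TMB colour, mock-treated BSA as negative control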
T1 construct: also called Peptide 18-23
T1 peptide: VFFAEDC
Answer with the value's number alone.

Some entries whose results are on file:
# binder, experimental-endpoint, recorded-measurement
records = [
    ("MS-R IgG1 3.6.H5 × 3.6.L2 (antibody, V domains shown, full-length human IgG1; VH entry starts at QLVESGG) VH: ELVESGGGLVQPGGSLRLSCAASGFTFSSYAMSWVRQAPGKGLEWVSAISESGKTKYYADSVKGRFTISRDNSKNTLYLQMNSLRAEDTAVYYCARLTHYARYYRYFDVWGQGTLVTVSS VL: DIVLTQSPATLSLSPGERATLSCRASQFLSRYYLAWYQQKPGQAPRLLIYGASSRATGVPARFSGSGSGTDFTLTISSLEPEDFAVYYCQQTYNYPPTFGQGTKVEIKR", "Peptide-ratio 18-23/2-7", 0.82),
    ("MS-R IgG 7.11H2 (antibody, V domains shown, full-length human IgG; also called 7.11H2 IgG) VH: QVELVESGGGLVQPGGSLRLSCAASGFTFSSYAMSWVRQAPGKGLEWVSAINANGYKKYYADSVKGRFTISRDNSKNTLYLQMNSLRAEDTAVYYCARGKGNTHKPYGYVRYFDVWGQGTLVTVSS VL: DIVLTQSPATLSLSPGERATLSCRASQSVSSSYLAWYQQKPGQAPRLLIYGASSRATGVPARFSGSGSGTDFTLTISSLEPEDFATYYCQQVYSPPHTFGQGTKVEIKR", "Peptide-ratio 18-23/2-7", 0.7),
    ("MSR 7.9.H2 IgG1 (antibody, V domains shown, full-length human IgG1) VH: QVELVESGGGLVQPGGSLRLSCAASGFTFSSYAMSWVRQAPGKGLEWVSAINADGNRKYYADSVKGRFTISRDNSKNTLYLQMNSLRAEDTAVYYCARGKGNTHKPYGYVRYFDVWGQGTLVTVSS VL: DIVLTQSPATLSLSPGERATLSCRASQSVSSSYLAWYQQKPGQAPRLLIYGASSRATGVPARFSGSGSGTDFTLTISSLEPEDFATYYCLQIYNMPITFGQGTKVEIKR", "Peptide-ratio 18-23/2-7", 0.62),
    ("MS-R IgG 8.2.H2 × 8.2.L1 (antibody, V domains shown, full-length human IgG) VH: QVELVESGGGLVQPGGSLRLSCAASGFTFSSYAMSWVRQAPGKGLEWVSAISRTGSKTYYADSVKGRFTISRDNSKNTLYLQMNSLRAEDTAVYYCARLLSRGYNGYYHKFDVWGQGTLVTVSS VL: DIVLTQSPATLSLSPGERATLSCRASQRVSGRYLAWYQQKPGQAPRLLIYGASSRATGVPARFSGSGSGTDFTLTISSLEPEDFATYYCQQLSSYPPTFGQGTKVEIKR", "Peptide-ratio 18-23/2-7", 1.92),
]

What value of measured Peptide-ratio 18-23/2-7 is listed for MS-R IgG1 7.9.H3 (antibody, V domains shown, full-length human IgG1; also called 7.9H3 IgG) VH: QVELVESGGGLVQPGGSLRLSCAASGFTFSSYAMSWVRQAPGKGLEWVSAINYQGNRKYYADSVKGRFTISRDNSKNTLYLQMNSLRAEDTAVYYCARGKGNTHKPYGYVRYFDVWGQGTLVTVSS VL: DIVLTQSPATLSLSPGERATLSCRASQSVSSSYLAWYQQKPGQAPRLLIYGASSRATGVPARFSGSGSGTDFTLTISSLEPEDFATYYCLQIYNMPITFGQGTKVEIK ? 0.62

What value of measured Peptide-ratio 18-23/2-7 is listed for MS-R #7.9.H7 IgG1 (antibody, V domains shown, full-length human IgG1; also called MAB 31; MS-Roche IgG #7.9.H7) VH: QVELVESGGGLVQPGGSLRLSCAASGFTFSSYAMSWVRQAPGKGLEWVSAINASGTRTYYADSVKGRFTISRDNSKNTLYLQMNSLRAEDTAVYYCARGKGNTHKPYGYVRYFDVWGQGTLVTVSS VL: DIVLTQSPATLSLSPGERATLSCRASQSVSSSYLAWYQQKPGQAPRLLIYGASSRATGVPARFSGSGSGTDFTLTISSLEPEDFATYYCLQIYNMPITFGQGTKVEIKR ? 0.53
